# Test system: NOMO1
# MEASUREMENT PROTOCOL: cell viability relative to DMSO control; higher = less cytotoxic
# RECORDED CONDITIONS: RPMI 5 mM glucose + 10% dialyzed FBS; 48 h; 0.0211 µM
MEASUREMENT KIND: cell viability (%)

>>> observed_result("CC1CNc2c(cccc2[S+](=O)([O-])N[C@@H](CCCNC(=N)N)C(=O)N2CC[C@@H](C)C[C@@H]2C(=O)O)C1 (some centres not stated)")
107
>>> observed_result("CCOC(=O)N1CCN(/[N+]([O-])=N/Oc2ccc([N+](=O)[O-])cc2C#N)CC1")
111
>>> observed_result("Cc1onc(-c2ccccc2Cl)c1C(=O)N[C@@H]1C(=O)N2[C@@H]1SC(C)(C)[C@@H]2C(=O)[O-]")
103
>>> observed_result("CNC(=O)c1ccc(N2C(=S)N(c3cnc(C#N)c(C(F)(F)F)c3)C(=O)C23CCC3)cc1F")
104
>>> observed_result("C[C@]12CC[C@@H]3c4ccc(O)cc4CC[C@H]3[C@@H]1[C@@H](O)[C@@H](O)[C@@H]2O")
142
>>> observed_result("CC1(C)O[C@@H]2C[C@H]3[C@@H]4C[C@H](F)C5=CC(=O)C=C[C@]5(C)[C@@]4(F)[C@@H](O)C[C@]3(C)[C@]2(C(=O)CO)O1")
114
>>> observed_result("CCN1CCN(c2ccc(Nc3cc(N(C)C(=O)Nc4c(Cl)c(OC)cc(OC)c4Cl)ncn3)cc2)CC1")
116

* * *

# System: SEM cells
# MEASUREMENT PROTOCOL: cell viability relative to DMSO control; higher = less cytotoxic
# RECORDED CONDITIONS: RPMI 5 mM glucose + 10% dialyzed FBS; 48 h; 46.1 µM
MEASUREMENT KIND: cell viability (%)

>>> observed_result("CNC(=O)c1ccc(N2C(=S)N(c3cnc(C#N)c(C(F)(F)F)c3)C(=O)C23CCC3)cc1F")
108
>>> observed_result("COc1cc(F)c(F)c(Nc2ccc(I)cc2F)c1N[S+](=O)([O-])C1(C[C@H](O)CO)CC1")
50.4
>>> observed_result("C[C@H]1C[C@@H]2[C@H](CC[C@@]3(C)[C@H]2CC[C@]3(OC(C)=O)C(C)=O)[C@@]\\4(C)CCC(=O)\\C=C14")
88.9
>>> observed_result("c1ccc2[nH]c(-c3cscn3)nc2c1")
97.3
>>> observed_result("O=C(Nc1cc(Cl)cc2c1[nH]c1cnccc12)c1cccnc1")
117
>>> observed_result("COC\\1=C(/OC)C(=O)\\C(=C(C)/C1=O)CCCCCCCCCCO")
68.3
>>> observed_result("CCN(CC)CCCCNc1ncc2cc(-c3cc(OC)cc(OC)c3)c(NC(=O)NC(C)(C)C)nc2n1")
14.4
>>> observed_result("O=C1c2ccccc2-[n+]2ccc3c([nH]c4ccccc43)c21")
2.5
>>> observed_result("C[C@@H]1COCCN1c1cc(C2([S@+](C)(=N)[O-])CC2)nc(-c2ccnc3[nH]ccc23)n1")
10.7
>>> observed_result("CNCCCC12CCC(c3ccccc31)c1ccccc12")
75.5
>>> observed_result("CC[S+](=O)([O-])c1cccc(-c2cc(C(=O)NC3CCN(C)CC3)c(C)c3[nH]c4ncc(C)cc4c23)c1")
6.33
>>> observed_result("CN1CCN(C2=Nc3cc(Cl)ccc3Nc3ccccc32)CC1")
22.5
>>> observed_result("OC[C@@H](O)[C@@H](O)[C@H](O)[C@@H](O)CO")
113
>>> observed_result("CCC1(c2ccccc2)C(=O)NCNC1=O")
109
>>> observed_result("COCCOc1ccc2c(c1)ncn2-c1ccc2cccc(N3CCC(N)CC3)c2n1")
3.97
>>> observed_result("CN[C@H]1CCC2=CC(=C(OC)C(=C2C/3=C/C=C(OC)\\C(=O)/C=C13)OC)OC")
3.33
>>> observed_result("Nc1ncnc2c1ncn2[C@@H]1O[C@@H](CO)[C@H](O)[C@@H]1O")
50.2
>>> observed_result("CN[C@@H](C)[C@H]1[C@H](O)C[C@@]2(C)[C@@H]3CC[C@H]4C(C)(C)[C@@H](NC)CC[C@@]45C[C@@]35CC[C@]12C")
89.8
>>> observed_result("COC(=O)Nc1cc(Nc2cc(NC3CC3)c3ncc(C#N)n3n2)c(Cl)c(N2CCN(C)CC2)c1")
5.24

* * *

# System: SEM cells
# MEASUREMENT PROTOCOL: cell viability relative to DMSO control; higher = less cytotoxic
# RECORDED CONDITIONS: RPMI 5 mM glucose + 10% FBS; 48 h; 0.19 µM
MEASUREMENT KIND: cell viability (%)

>>> observed_result("C[C@@]12C(=O)OC(=O)[C@@]1(C)C1CCC2O1")
110
>>> observed_result("COC(=O)C[C@](O)(CCCC(C)(C)O)C(=O)O[C@@H]1C(OC)=CC23CCCN2CCc2cc4c(cc2[C@H]13)OCO4 (stereo partly drawn)")
111
>>> observed_result("O=C(Nc1cc(Cl)cc2c1[nH]c1cnccc12)c1cccnc1")
125
>>> observed_result("CC[C@]12CC[C@H]3[C@@H](CCC/4=C/C(=O)CC[C@H]34)[C@@H]1\\C=C/[C@@]2(O)C#C")
117
>>> observed_result("CCOC(=O)c1ccc(OC(=O)CCCCCNC(=N)N)cc1")
140
>>> observed_result("C[C@H]1C[C@@H]2[C@H](CC[C@@]3(C)[C@H]2CC[C@]3(OC(C)=O)C(C)=O)[C@@]\\4(C)CCC(=O)\\C=C14")
96.2
>>> observed_result("C[C@](Cc1c[nH]c2ccccc12)(NC(=O)OC1C2CC3CC(C2)CC1C3)C(=O)NC[C@H](NC(=O)CCC(=O)O)c1ccccc1 (stereo partly drawn)")
149
>>> observed_result("NC1=C(Cl)C(=CC=N1)OC2=C(F)C=C(NC(=O)\\C3=C\\N\\C=C(C3=O)\\C4=CC=C(F)C=C4)C=C2")
70.5

* * *

# Tested on: NOMO1
# MEASUREMENT PROTOCOL: cell viability relative to DMSO control; higher = less cytotoxic
# RECORDED CONDITIONS: RPMI 5 mM glucose + 10% FBS; 48 h; 0.0632 µM
Overview of recorded cell viability for various compounds
MEASUREMENT KIND: cell viability (%)

>>> observed_result("CCc1ccc(CCOc2ccc(CC3SC(=O)NC3=O)cc2)nc1 (stereo not drawn)")
107
>>> observed_result("CC(C)(O)CC[C@@H](O)[C@](C)(O)[C@H]1CC[C@@]2(O)C/3=C/C(=O)[C@@H]4C[C@@H](O)[C@@H](O)C[C@]4(C)[C@H]3CC[C@]12C")
93.2
>>> observed_result("CC(C)c1noc(N2CCC(COc3ccc(-c4ccc([S+](C)(=O)[O-])cc4)nc3)CC2)n1")
121
>>> observed_result("OC[C@@H](O)[C@@H](O)[C@H](O)[C@@H](O)CO")
130
>>> observed_result("CC1=C(C)C(=O)C(C(CCCCCC(=O)O)c2ccccc2)=C(C)C1=O (stereo not drawn)")
74.9
>>> observed_result("COc1ccc(-c2ccc3ncc4c(c3c2)n(-c2ccc(N3CCNCC3)c(C(F)(F)F)c2)c(=O)n4C)cn1")
70
>>> observed_result("CCOC(=O)N1CCN(/[N+]([O-])=N/Oc2ccc([N+](=O)[O-])cc2C#N)CC1")
102
>>> observed_result("NC\\1=N\\C(=O)N(\\C=C1)[C@@H]2O[C@H](CO)[C@@H](O)[C@@H]2O")
54.1
>>> observed_result("N#CCNC(=O)c1ccc(-c2ccnc(Nc3ccc(N4CCOCC4)cc3)n2)cc1")
107
>>> observed_result("COc1ccc([C@@H]2CC(=O)c3c(O)cc(O[C@@H]4O[C@H](CO[C@@H]5O[C@@H](C)[C@H](O)[C@@H](O)[C@H]5O)[C@@H](O)[C@H](O)[C@H]4O)cc3O2)cc1O")
121
>>> observed_result("CN1CCN(C2=Nc3cc(Cl)ccc3Nc3ccccc32)CC1")
107
>>> observed_result("CNCCCC12CCC(c3ccccc31)c1ccccc12")
95.2
>>> observed_result("Cc1c(C)n(Cc2ccc(-c3ccccc3C(=O)O)cc2)c2ccc(C(=O)N[C@@H](C)c3ccc([N+](=O)[O-])cc3)cc12")
105
>>> observed_result("CC[C@H](/C=C/[C@@H](C)[C@H]1CC[C@H]2[C@@H]3CC=C4C[C@@H](O)CC[C@]4(C)[C@H]3CC[C@]12C)C(C)C")
92.9
>>> observed_result("c1ccc(CCCN2CCN(CCOC(c3ccccc3)c3ccccc3)CC2)cc1")
94.9
>>> observed_result("O=C(C=CC#Cc1cccc(N[S+](=O)([O-])c2ccccc2)c1)NO")
119
>>> observed_result("COCC1(CO)C(=O)C2CCN1CC2 (stereo not drawn)")
107
>>> observed_result("CNC(=O)c1ccc2cc(C3(O)CCn4cncc43)ccc2c1 (stereo not drawn)")
110
